System: HOP-92 NSCLC
experimental details: NCI tumour cell line growth inhibition, 48 h
Entries annotated with measured TGI

CSc1nc(C#N)c(/N=C\N(C)C)n1C
> 100 µM
COc1cc(CSc2nc3ccc(C)cc3c(=O)n2-c2ccccc2)cc(OC)c1OC
8.74 µM
CCCCCCCCCCCCCCCCCCNc1ccn(C2OC(COP(=O)(O)OCC3OC(n4cc(F)c(=O)[nH]c4=O)CC3O)C(O)C2O)c(=O)n1 (configuration not stated)
> 100 µM

Entry under review: COc1cc(OC(=O)c2ccccc2)cc2c1C(=O)C=CC2=O . Reported TGI? 5.05 µM

Next molecule: COC(=O)/C(C)=C(/CCC1(C)OCCO1)O[Si](C)(C)C > 100 µM

Next molecule: CNc1ncnc2c1ncn2C1C=CC(COS(N)(=O)=O)C1 (configuration not stated) > 100 µM

Next molecule: COC(=O)C(=O)C(C(=O)C(=O)Nc1ccc(F)cc1)c1nc2ccc([N+](=O)[O-])cc2[nH]c1=O (configuration not stated) > 100 µM

Next molecule: COc1cc2c(c(O)c1OC)-c1c(cc(OC)c(OC)c1OC)CC(C)C(C)C2 (configuration not stated) > 100 µM

* * *

System: CAKI-1 renal
experimental details: NCI tumour cell line growth inhibition, 48 h; in the data active = GI50 below about 0.43 µM; inactive = the rest
Give one outcome, nothing more. List: YES for active, NO for inactive

C=C(C)C(=O)Nc1ccc(NC(C)C)cc1
NO
COc1ccc2nc3cccc([N+](=O)[O-])c3c(NCCCCCC(=O)O)c2c1
YES
Nc1c(C(=O)c2cccc(-c3ccncc3)c2)cnn1-c1ccc(F)cc1F
NO
COc1ccc2c(c1)c(=O)oc1cc(OC/C(C)=N\O)ccc12
NO
Cc1c(C(N)=O)sc2c1C(=O)N(Cc1ccccc1)C1=NN=C(c3ccc(Cl)cc3)CN12
NO
Cc1cc2c(cc1C)N(C(=O)CCl)CC(=O)N2
NO
CCC(C)(CC(C)(C)C(=O)NCC(=O)NC(Cc1ccccc1)C(=O)NC(Cc1ccccc1)C(=O)NCC(=O)NC1CC(OC2CC(O)(C(=O)CO)Cc3c(O)c4c(c(O)c32)C(=O)c2c(OC)cccc2C4=O)OC(C)C1O)C(=O)NCC(C)O (stereo not drawn)
NO

Could you kindly confirm the outcome this assay logged for Nc1ncnc2nc[nH]c12 ? NO

* * *

Test system: MDA-N
experimental details: NCI tumour cell line growth inhibition, 48 h
measured parameter: TGI

C=CCNC(=O)NC(=O)CSC1=NNC2(C(=O)N1)c1ccccc1-c1ccccc12
> 10 µM
C=CCN1C(=O)/C(=C/c2ccc(OC)cc2)N=C1SC/C=C/C
> 100 µM
Clc1ccc(NCc2nnc(CCCCCCCCc3nnc(CNc4ccc(Cl)cc4)o3)o2)cc1
> 100 µM
O=[N+]([O-])/C(C(Cl)=C(Cl)Cl)=C(\N1CCOCC1)n1nnc2ccccc21
42.5 µM
C=CCOc1cccc(C2(O)c3ccccc3C3=NCCCN32)c1 (stereo not given)
33.1 µM

Entry under review: O=C1/C(=C/c2cccc(Br)c2)CCc2ccccc21 . Reported TGI? 24.5 µM

Next compound: CC(CCN)(CCN)[N+](=O)[O-] > 100 µM

Next compound: Cc1cc(=O)[nH]c(-n2[nH]c(C)c(CCO)c2=O)n1 > 100 µM

* * *

Entries annotated with measured TGI
Tested on: MDA-MB-231 breast
experimental details: NCI tumour cell line growth inhibition, 48 h
Express it in µM; write the number only.

Some solved cases for reference:
O=C(CCCCCCCCC(=O)N/N=C\c1ccccc1O)N/N=C\c1ccccc1O
32.2
C=C1CCC2C3(C)COC(c4ccc(N(C)C)cc4)OC3CCC2(C)C1C/C=C1/C(=O)OCC1O (stereo not drawn)
20.8
COc1cc(C(=O)O[C@H](C(=O)NCCCCCNC(=O)[C@@H](OC(=O)c2cc(OC)cc3c(C)cccc23)[C@]2(C)CO2)[C@]2(C)CO2)c2cccc(C)c2c1
4.03

With those in mind, consider the next compound.
Entry under review: COc1ccc(C(=O)OC2C(OC3C(O)COC(O[C@H]4C[C@H]5[C@@H]6CC=C7C[C@@H](O)CC[C@]7(C)[C@H]6CC[C@]5(C)[C@H]4[C@H](C)C(=O)CCC(C)C)C3OC(N)=O)OCC(O)C2O)cc1 (stereo partly drawn) . Reported TGI? 4.58
